Data provenance is the supplement of paper PMC10567573.

B1: FLOT1 (parent)
chain: QMAKKAEAFQLYQEAAQLDMLLEK

# Variants of: B1
# assayText: protein stability index of a GFP-peptide fusion (GPS, HEK-293T) (PSI 1-6); higher = more stable;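 also: lentivirally expressed fusions sorted by FACS into six bins by GFP to DsRed ratio, PSI derived from sequencing read proportions per bin multiplied by bin number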
# measurementContext: c terminus: a fixed tail appended
# protein stability index per record follows
# output: bare number, no unit

Recorded protein stability index, per entry:
QMAKKAEAFQLYQEAAQLDMLCEK [L22C] :: 2.42
QMAKKAEAFQLYQEAAQLDMLLEA [K24A] :: 2.53
QMAKKAEAFQLYQEVAQLDMLLEK [A15V] :: 2.33

## Task What value of protein stability index has been recorded for this entry: QMAKKAEAFQLYQEAAQLDMLLER [K24R]
## Result 2.13

## Task What value of protein stability index has been recorded for this entry: QMAKKAEAFQLYQEAAQLPMLLEK [D19P]
## Result 3.95

## Task What value of protein stability index has been recorded for this entry: QDAKKAEAFQLYQEAAQLDMLLEK [M2D]
## Result 2.45

## Task What value of protein stability index has been recorded for this entry: QMAKKAEAFLLYQEAAQLDMLLEK [Q10L]
## Result 2.09

## Task What value of protein stability index has been recorded for this entry: QMAKKAEPFQLYQEAAQLDMLLEK [A8P]
## Result 1.98

## Task What value of protein stability index has been recorded for this entry: QMAKKAEAFQAYQEAAQLDMLLEK [L11A]
## Result 2.03

## Task What value of protein stability index has been recorded for this entry: QMAKKAEAFQLYQEAAFLDMLLEK [Q17F]
## Result 2.6

## Task What value of protein stability index has been recorded for this entry: QMAKKAYAFQLYQEAAQLDMLLEK [E7Y]
## Result 1.8

## Task What value of protein stability index has been recorded for this entry: QMAQKAEAFQLYQEAAQLDMLLEK [K4Q]
## Result 1.51

## Task What value of protein stability index has been recorded for this entry: QMAKKAEAFQLYPEAAQLDMLLEK [Q13P]
## Result 3.87

## Task What value of protein stability index has been recorded for this entry: QMAKKAEAFQLYQEAAQLDMLLMK [E23M]
## Result 1.28

## Task What value of protein stability index has been recorded for this entry: QMAKKAEALQLYQEAAQLDMLLEK [F9L]
## Result 2.37

## Task What value of protein stability index has been recorded for this entry: QMAKKAEAFQGYQEAAQLDMLLEK [L11G]
## Result 1.76

## Task What value of protein stability index has been recorded for this entry: QMAKKAEAFQLYQEAAQTDMLLEK [L18T]
## Result 3.56

## Task What value of protein stability index has been recorded for this entry: QMAKKAEAFQLYQEAAQLDMDLEK [L21D]
## Result 2.58

## Task What value of protein stability index has been recorded for this entry: QMCKKAEAFQLYQEAAQLDMLLEK [A3C]
## Result 2.81
